- experimental-details: pKa and log P by potentiometric titration
- Assay type: physicochemical
- run-conditions: weak base
metric: pKa
I'd appreciate a reply containing only the number, no unit.

Challenge: Given the entry Cc1nc(-c2cn3c(n2)-c2ccc(-c4cnn(C(C)(C)C(N)=O)c4)cc2OCC3)n(C(C)C)n1 [GDC-0032] , report its measured pKa.
Response given: 3.19

----------
- experimental-details: Solubility assessment as a function of pH and in different buffers and formulation vehicles
- Type: physicochemical
- run-conditions: aqueous buffer; 50 mM phosphate buffer, pH 6.5, at room temperature
- From the text: The solubility behavior of GDC-0032 API is summarized as a Function of pH and in Different Buffers and Formulation Vehicles
metric: solubility (µg/mL)
Write the value in µg/mL as a bare number.

Challenge: Given the entry `Cc1nc(-c2cn3c(n2)-c2ccc(-c4cnn(C(C)(C)C(N)=O)c4)cc2OCC3)n(C(C)C)n1` , report its measured solubility.
Response given: 0.72

----------
- experimental-details: pKa and log P by potentiometric titration
- Format: physicochemical
metric: logP

Challenge: Given the entry Cc1nc(-c2cn3c(n2)-c2ccc(-c4cnn(C(C)(C)C(N)=O)c4)cc2OCC3)n(C(C)C)n1 [GDC-0032] , report its measured logP.
Response given: 2.5

----------
- experimental-details: Solubility assessment as a function of pH and in different buffers and formulation vehicles
- Assay type: physicochemical
- run-conditions: FaSSIF, pH 6.8, at 37° C.
metric: solubility
Express the reported value numerically, then name its unit.

Challenge: Given the entry `Cc1nc(-c2cn3c(n2)-c2ccc(-c4cnn(C(C)(C)C(N)=O)c4)cc2OCC3)n(C(C)C)n1` , report its measured solubility.
Response given: 22 µg/mL

----------
- experimental-details: Solubility assessment as a function of pH and in different buffers and formulation vehicles
- Format: physicochemical
- run-conditions: water
metric: solubility

Challenge: Given the entry Cc1nc(-c2cn3c(n2)-c2ccc(-c4cnn(C(C)(C)C(N)=O)c4)cc2OCC3)n(C(C)C)n1 [GDC-0032] , report its measured solubility.
Response given: 1.5 µg/mL

----------
- experimental-details: Solubility assessment as a function of pH and in different buffers and formulation vehicles
- Assay type: physicochemical
- run-conditions: simulated gastric fluid; 0.1N HCl, pH 1.1, at room temperature
metric: solubility (µg/mL)
Write the value in µg/mL as a bare number.

Challenge: Given the entry Cc1nc(-c2cn3c(n2)-c2ccc(-c4cnn(C(C)(C)C(N)=O)c4)cc2OCC3)n(C(C)C)n1 [GDC-0032] , report its measured solubility.
Response given: 54
